These data points were gathered from patent US11331299B2.

Assignment: determine reported EC50 for the given compounds.
Tested on: 280 human cancer cell lines
Protocol description: OncoPanel cell proliferation assay (10-day)
Format: cell-based
Test context: Homo sapiens, CRO-AP2, CRO-AP2, Lymphoma; read-out: Cell Count EC50
Answers are plain numbers, in µM.

Consider the reported EC50 for these compounds:
>  <Compound>
CC(C)=CCC[C@H](C)[C@@H]1CC[C@@H](C)c2c1cc(C)c(O)c2O [Compound 4, 7,8-dihydroxyserrulat-14-ene]

>  <Assay target>
280 human cancer cell lines

>  <EC50 / µM>
9.94

$$$$
>  <Compound>
CC(C)=CCC[C@@H]1C(O)Oc2c(C)cc(O)c3c2[C@H]1CC[C@H]3C (stereo partly drawn)

>  <Assay target>
280 human cancer cell lines

>  <EC50 / µM>
6.38

$$$$

Let us move to another entry and its EC50.
-- ask # query: EC50 of entry CC(C)=CCC[C@H](CO)[C@@H]1CC[C@@H](C)c2c1cc(C)c(O)c2O [Compound 1, 7,8,18-trihydroxyserrulat-14-ene]
-- reply 5.72

---

Assignment: determine reported EC50 for the given compounds.
System: 280 human cancer cell lines
Protocol description: OncoPanel cell proliferation assay (10-day)
Format: cell-based
Test context: Homo sapiens, SK-BR-3, SK-BR-3, Breast; read-out: Cell Count EC50
State the value with its unit after it.

>  <Compound>
CC(C)=CCC[C@H](C)[C@@H]1CC[C@@H](C)c2c1cc(C)c(O)c2O [Compound 4, 7,8-dihydroxyserrulat-14-ene]

>  <EC50>
10.3 µM

$$$$
>  <Compound>
CC(C)=CCC[C@H](CO)[C@@H]1CC[C@@H](C)c2c1cc(C)c(O)c2O [Compound 1, 7,8,18-trihydroxyserrulat-14-ene]

>  <EC50>
1.79 µM

$$$$

Let us move to another entry and its EC50.
-- ask Record CC(C)=CCC[C@@H]1C(O)Oc2c(C)cc(O)c3c2[C@H]1CC[C@H]3C (stereo partly drawn) : what is its EC50 with 280 human cancer cell lines?
-- reply 12.2 µM

---

Assay target: JMJD2B (h) (Homo sapiens, UniProt O94953)
Sequence (O94953 whole entry): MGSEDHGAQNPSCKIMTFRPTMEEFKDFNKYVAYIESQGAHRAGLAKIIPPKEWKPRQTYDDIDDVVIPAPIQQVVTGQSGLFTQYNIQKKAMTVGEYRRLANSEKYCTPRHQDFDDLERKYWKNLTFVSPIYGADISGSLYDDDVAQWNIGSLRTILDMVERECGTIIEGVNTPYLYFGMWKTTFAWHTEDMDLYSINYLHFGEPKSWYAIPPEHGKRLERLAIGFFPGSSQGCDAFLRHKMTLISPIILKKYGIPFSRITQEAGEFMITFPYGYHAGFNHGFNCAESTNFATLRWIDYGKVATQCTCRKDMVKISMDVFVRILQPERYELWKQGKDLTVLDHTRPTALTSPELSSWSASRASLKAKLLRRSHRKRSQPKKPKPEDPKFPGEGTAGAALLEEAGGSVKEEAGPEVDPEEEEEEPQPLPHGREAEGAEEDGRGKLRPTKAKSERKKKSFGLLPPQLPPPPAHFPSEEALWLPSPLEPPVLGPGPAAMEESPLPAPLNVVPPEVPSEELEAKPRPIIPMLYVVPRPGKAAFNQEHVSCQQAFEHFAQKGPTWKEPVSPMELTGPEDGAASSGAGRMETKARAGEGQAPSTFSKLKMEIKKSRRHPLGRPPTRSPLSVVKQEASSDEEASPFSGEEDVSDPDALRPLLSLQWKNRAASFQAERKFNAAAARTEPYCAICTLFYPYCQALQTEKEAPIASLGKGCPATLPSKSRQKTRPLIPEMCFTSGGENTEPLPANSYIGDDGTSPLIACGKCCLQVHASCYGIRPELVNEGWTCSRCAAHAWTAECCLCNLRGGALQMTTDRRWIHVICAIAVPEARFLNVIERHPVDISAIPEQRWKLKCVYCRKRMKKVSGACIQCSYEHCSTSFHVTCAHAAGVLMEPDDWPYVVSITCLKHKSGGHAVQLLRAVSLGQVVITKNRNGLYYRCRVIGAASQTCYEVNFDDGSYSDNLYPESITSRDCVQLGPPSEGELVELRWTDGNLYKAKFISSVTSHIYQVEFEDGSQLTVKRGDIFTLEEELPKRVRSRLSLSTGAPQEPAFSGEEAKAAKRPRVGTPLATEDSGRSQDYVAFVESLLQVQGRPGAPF
Protocol description: Epigenetic enzyme assay, Demethylases (KDMs)
Type: biochemical
Test context: read-out: Reference IC50
Attribute measured: pIC50
Give bare numbers, as −log10 of the molar value.

-- ask Record O=C(O)c1ccnc(C(=O)O)c1 [2,4 PDCA, reference compound] : what is its pIC50 with JMJD2B (h) (Homo sapiens, UniProt O94953)?
-- reply 6.85

---

Test system: 280 human cancer cell lines
Protocol description: OncoPanel cell proliferation assay (10-day)
Assay type: cell-based
Test context: Homo sapiens, RD, Soft Tissue - Sarcoma; read-out: Cell Count IC50
Attribute measured: IC50 (µM)
Answers are plain numbers, in µM.

Consider the reported IC50 for these compounds:
>  <Compound>
CC(C)=CCC[C@H](CO)[C@@H]1CC[C@@H](C)c2c1cc(C)c(O)c2O [Compound 1, 7,8,18-trihydroxyserrulat-14-ene]

>  <Numeric result>
0.81

$$$$
>  <Compound>
CC(C)=CCC[C@H](C)[C@@H]1CC[C@@H](C)c2c1cc(C)c(O)c2O [Compound 4, 7,8-dihydroxyserrulat-14-ene]

>  <Numeric result>
5.19

$$$$

-- ask # query: IC50 of entry CC(C)=CCC[C@@H]1C(O)Oc2c(C)cc(O)c3c2[C@H]1CC[C@H]3C (stereo partly drawn) [Compound 2, 5,18-epoxyserrulat-14-en-8,18-diol]
-- reply 2.98

---

Assay target: CREBBP (h) bromodomain (Homo sapiens)
Construct: Bromodomain; Eurofins CEREP (France), contract laboratory
Sequence (Q92793 1085-1192 limits assumed): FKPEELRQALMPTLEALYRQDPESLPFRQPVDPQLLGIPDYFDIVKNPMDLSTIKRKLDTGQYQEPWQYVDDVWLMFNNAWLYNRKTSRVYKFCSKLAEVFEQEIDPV
Protocol description: Epigenetic binding assay, Bromodomain
Test context: Table 9, inhibition/concentration-response curve
Attribute measured: IC50 (µM)
Answers are plain numbers, in µM.

-- ask # query: IC50 of entry CC(C)=CCC[C@H](CO)[C@@H]1CC[C@@H](C)c2c1cc(C)c(O)c2O [Compound 1, 7,8,18-trihydroxyserrulat-14-ene]
-- reply 3.4

---

Tested on: 280 human cancer cell lines
Protocol description: OncoPanel cell proliferation assay (10-day)
Type: cell-based
Test context: Homo sapiens, CHP-212, CHP-212, CNS - Neuroblastoma; read-out: Cell Count EC50
Attribute measured: EC50 (µM)
Answers are plain numbers, in µM.

Consider the reported EC50 for these compounds:
>  <Compound>
CC(C)=CCC[C@@H]1C(O)Oc2c(C)cc(O)c3c2[C@H]1CC[C@H]3C (stereo partly drawn) [Compound 2, 5,18-epoxyserrulat-14-en-8,18-diol]

>  <Assay target>
280 human cancer cell lines

>  <EC50 (µM)>
11.4

$$$$
>  <Compound>
CC(C)=CCC[C@H](C)[C@@H]1CC[C@@H](C)c2c1cc(C)c(O)c2O [Compound 4, 7,8-dihydroxyserrulat-14-ene]

>  <Assay target>
280 human cancer cell lines

>  <EC50 (µM)>
9.77

$$$$

Let us move to another entry and its EC50.
-- ask # query: EC50 of entry CC(C)=CCC[C@H](CO)[C@@H]1CC[C@@H](C)c2c1cc(C)c(O)c2O [Compound 1, 7,8,18-trihydroxyserrulat-14-ene]
-- reply 1.43

---

Test system: 280 human cancer cell lines
Protocol description: OncoPanel cell proliferation assay (10-day)
Assay type: cell-based
Test context: Homo sapiens, SJRH30, SJRH30, Soft Tissue - Sarcoma; read-out: Cell Count EC50
Attribute measured: pEC50
Numbers only, as −log10 of the molar value.

Consider the reported pEC50 for these molecules:
>  <Molecule>
CC(C)=CCC[C@@H]1C(O)Oc2c(C)cc(O)c3c2[C@H]1CC[C@H]3C (stereo partly drawn)

>  <pEC50>
5.29

$$$$
>  <Molecule>
CC(C)=CCC[C@H](CO)[C@@H]1CC[C@@H](C)c2c1cc(C)c(O)c2O [Compound 1, 7,8,18-trihydroxyserrulat-14-ene]

>  <pEC50>
5.85

$$$$

-- ask # query: pEC50 of entry CC(C)=CCC[C@H](C)[C@@H]1CC[C@@H](C)c2c1cc(C)c(O)c2O [Compound 4, 7,8-dihydroxyserrulat-14-ene]
-- reply 5.43

---

System: 280 human cancer cell lines
Protocol description: OncoPanel cell proliferation assay (10-day)
Format: cell-based
Test context: Homo sapiens, SK-PN-DW, Stomach; read-out: Cell Count EC50
Assignment: determine reported pEC50 for the given compounds.
Give bare numbers, as −log10 of the molar value.

Consider the reported pEC50 for these compounds:
>  <Compound>
CC(C)=CCC[C@H](C)[C@@H]1CC[C@@H](C)c2c1cc(C)c(O)c2O [Compound 4, 7,8-dihydroxyserrulat-14-ene]

>  <pEC50>
5.31

$$$$
>  <Compound>
CC(C)=CCC[C@H](CO)[C@@H]1CC[C@@H](C)c2c1cc(C)c(O)c2O [Compound 1, 7,8,18-trihydroxyserrulat-14-ene]

>  <pEC50>
5.33

$$$$

Let us move to another entry and its pEC50.
-- ask # query: pEC50 of entry CC(C)=CCC[C@@H]1C(O)Oc2c(C)cc(O)c3c2[C@H]1CC[C@H]3C (stereo partly drawn)
-- reply 4.97

---

Assay target: receptors (Bioprint panel)
Protocol description: biochemical
Type: binding
Test context: […] (h) (agonist radioligand); read-out: Reference Compound IC50
Attribute measured: pIC50
Give bare numbers, as −log10 of the molar value.

-- ask # query: pIC50 of entry CCCCC[C@H](O)/C=C/[C@@H]1[C@@H](C/C=C\CCCC(=O)O)[C@@H](O)C[C@H]1O [PGF2alpha]
-- reply 8.52

---

System: 280 human cancer cell lines
Protocol description: OncoPanel cell proliferation assay (10-day)
Assay type: cell-based
Test context: Homo sapiens, SW1353, SW1353, Soft Tissue - Osteosarcoma; read-out: Cell Count EC50
Assignment: determine reported EC50 for the given molecules.
State the value with its unit after it.

Consider the reported EC50 for these molecules:
>  <Molecule>
CC(C)=CCC[C@H](C)[C@@H]1CC[C@@H](C)c2c1cc(C)c(O)c2O [Compound 4, 7,8-dihydroxyserrulat-14-ene]

>  <EC50>
4.15 µM

$$$$
>  <Molecule>
CC(C)=CCC[C@@H]1C(O)Oc2c(C)cc(O)c3c2[C@H]1CC[C@H]3C (stereo partly drawn) [Compound 2, 5,18-epoxyserrulat-14-en-8,18-diol]

>  <EC50>
9.49 µM

$$$$

Let us move to another entry and its EC50.
-- ask # query: EC50 of entry CC(C)=CCC[C@H](CO)[C@@H]1CC[C@@H](C)c2c1cc(C)c(O)c2O [Compound 1, 7,8,18-trihydroxyserrulat-14-ene]
-- reply 1 µM

---

Assignment: determine reported IC50 for the given molecules.
Test system: 280 human cancer cell lines
Protocol description: OncoPanel cell proliferation assay (10-day)
Assay type: cell-based
Test context: Homo sapiens, FaDu, Head and Neck; read-out: Cell Count IC50

>  <Molecule>
CC(C)=CCC[C@@H]1C(O)Oc2c(C)cc(O)c3c2[C@H]1CC[C@H]3C (stereo partly drawn)

>  <Result>
8.66 µM

$$$$
>  <Molecule>
CC(C)=CCC[C@H](C)[C@@H]1CC[C@@H](C)c2c1cc(C)c(O)c2O [Compound 4, 7,8-dihydroxyserrulat-14-ene]

>  <Result>
8.28 µM

$$$$

-- ask Record CC(C)=CCC[C@H](CO)[C@@H]1CC[C@@H](C)c2c1cc(C)c(O)c2O [Compound 1, 7,8,18-trihydroxyserrulat-14-ene] : what is its IC50 with 280 human cancer cell lines?
-- reply 0.87 µM
